- Test system: COLO 205 colon
- Assay Info: NCI tumour cell line growth inhibition, 48 h
Can you tell me TGI for the items I'm about to list?

compound="O=C(NC(Cc1ccc(Cl)cc1)C(=O)O)c1ccc(I)cc1 (stereo not drawn)" measurement_target="COLO 205 colon" measured_property=TGI test_value="> 100 µM"
compound=CC1(C)CCC(C)(C)c2cc(NC(=O)c3ccc(C(=O)O)cc3)ccc21 measurement_target="COLO 205 colon" measured_property=TGI test_value="> 55.9 µM"

Give TGI for each listed item.
1. Cc1sc2c(c1C)C(c1ccc(Cl)cc1)=N[C@@H](CC(=O)NCCCN1CCN(C)CC1)c1nnc(C)n1-2
2. CS(=O)(=O)O[C@H]1[C@H](O)c2ccccc2[C@@H]1N=[N+]=[N-]
3. N=C(N)c1ccc(N=Nc2c(O)ccc3cc4c(N=Nc5ccc(C(=N)N)cc5)c(O)ccc4cc23)cc1
4. COC(=O)C(c1ccc(OC)cc1)N1C(=O)[C@@H](NC(=O)c2ccccc2)[C@H]1[C@@H](C)O (stereo partly drawn)
5. Cc1ccccc1Nc1nc(NNC(=O)Cc2ccccc2)nc(NNC(=O)c2ccncc2)n1
6. COc1ccc(-c2cn(-c3cc(OC)c(OC)c(OC)c3)c(=O)[nH]2)cc1OC

A.
1. > 100 µM
2. > 100 µM
3. > 100 µM
4. > 100 µM
5. > 10 µM
6. > 100 µM

###

Can you tell me TGI for the items I'm about to list?
- Tested on: HT29 colon
- Assay Info: NCI tumour cell line growth inhibition, 48 h

Check out these entries, answers already filled in.
compound=C=CCOC(=O)Nc1cccn([C@H](CC(C)C)C(=O)NCCC(C)C)c1=O test_value="> 100 µM"
compound="CC(=O)Nc1cc2nc3n(c2cc1C)CCC3OC(C)=O (centres undefined)" test_value="> 100 µM"
compound=COc1ccc(/C=C/C(=O)c2sc(-c3cccnc3)nc2C)cc1 test_value="> 100 µM"
compound=COc1cc(CCC(=O)NC[C@@H](O)c2ccccc2)ccc1O test_value="> 100 µM"
compound=Cc1[nH]nc2ncc(C(=O)N3CCC[C@H]3c3ccc(Cl)cc3)cc12 test_value="> 100 µM"
compound=O=C(O)c1cn(C2CC2)c2cc(N3CCN(Cc4c(O)ccc5ccccc45)CC3)c(F)cc2c1=O test_value="> 100 µM"
compound=O=C1NC(=NCCc2ccccn2)S/C1=C\c1ccc2ncccc2c1 test_value="> 25 µM"
compound=CN(C)Cc1c(C(=O)NCCOc2ccc(C(=O)NO)cc2)oc2ccccc12 test_value="1.36 µM"

Give TGI for each listed item.
1. O=c1[nH]c2c(c(=O)[nH]1)C(c1ccc([N+](=O)[O-])cc1)c1c([nH]c(=O)[nH]c1=O)O2
2. COc1cc(/C=C2\N=C(c3ccccc3)N(c3nc4ccc(Sc5ccccc5)cc4[nH]3)C2=O)cc(OC)c1OC
3. O=C1CC2CC(CC3(CO3)C2)C1F (centres undefined)
4. O=C(O)CCCN=C(C1=C(O)C(=O)N(c2ccccc2)C1=O)c1ccccc1
5. CC[PH+](CC)CC.CC[PH+](CC)CC.[Au]

A.
> 100 µM
48.4 µM
> 100 µM
> 100 µM
32.4 µM

Give TGI for each listed item.
1. NC(CCCCNCc1ccccc1)C(=O)O (centres undefined)
2. OCC1CCCC1O (centres undefined)
3. CCC12C=CCN3CCC4(c5cc(C(c6ccc(OC)cc6)C6Cc7ccccc7N6)c(OC)cc5N(C)C4C(O)(C(=O)OC)C1O)C32 (centres undefined)
4. CCNc1nnc(-c2ccccc2Nc2ccccc2-c2nnc(NCC)s2)s1
5. CC1Cc2ccccc2N1C(=O)Cc1nc(N2CCOCC2)cc(=O)[nH]1 (centres undefined)

A.
1. > 100 µM
2. > 100 µM
3. > 100 µM
4. 60.5 µM
5. > 100 µM

Give TGI for each listed item.
1. O=C(CSSCC(=O)Nc1ccc(Br)cc1)Nc1ccc(Br)cc1
2. Cn1cc(-c2nnc(-c3ccc(Cl)cc3)[nH]c2=O)c2ccccc21
3. CC(=O)N[C@@H](Cc1ccc(OP(=O)(O)O)cc1)C(=O)N[C@H]1CCC(=O)N2CCC[C@@H](C(=O)NCc3ccccc3)N2C1=O
4. O=C1C=C(c2ccccc2)O/C1=C\C(=O)c1ccc(Cl)cc1
5. Cc1ccc(OCCOCCOCCOCCOCCOc2ccc(C)n(O)c2=S)c(=S)n1O
6. N#Cc1c(-c2ccc(Cl)cc2)c2c([nH]c1=O)-c1cc([N+](=O)[O-])ccc1CCC2

A.
1. 47.6 µM
2. > 24.6 µM
3. > 25 µM
4. 13.1 µM
5. > 100 µM
6. 75.5 µM

###

- Tested on: HOP-62 NSCLC
- Assay Info: NCI tumour cell line growth inhibition, 48 h
Measured Property: TGI

compound="CN1C(=O)C2(c3ccccc31)C1CC3C(CO1)C1C2C3(CO)CN1C#N (configuration not stated)" measured_property=TGI test_value="> 100 µM"
compound=Cn1cc(-c2nnc(-c3ccc(Cl)cc3)[nH]c2=O)c2ccccc21 measured_property=TGI test_value="> 75.8 µM"
compound="C=C(Cl)C(C)(Cl)CCC(Cl)C(C)C (configuration not stated)" measured_property=TGI test_value="> 100 µM"
compound=N#Cc1c(N/N=C\c2ccc(Cl)cc2)nc(N)nc1N1CCOCC1 measured_property=TGI test_value="> 100 µM"

Give TGI for each listed item.
1. COc1ccc2c(c1OC)C(=O)N/C2=C\c1c(CCN(C)C)cc2c(c1OC)OCO2
2. CC(=O)N[C@@H](Cc1ccc(OP(=O)(O)O)cc1)C(=O)N[C@H]1CCC(=O)N2CCC[C@@H](C(=O)NCc3ccccc3)N2C1=O
3. CN(C)c1ccc(/C=C(\NC(=O)c2ccccc2)C(=O)Nc2cccc(C(=O)NCCCO)c2)cc1

A.
> 100 µM
> 25 µM
> 100 µM

###

- Test system: A549 NSCLC
- Assay Info: NCI tumour cell line growth inhibition, 48 h
Residues, ends and D or L forms follow the SMILES beside them. *: point of attachment. Cbz = O=C(OCc1ccccc1)*
Measured Property: GI50

compound=COc1ccc(Cn2cc3c(c2-c2cc(OC)c(OC)c(OC)c2)CCc2c(CO)noc2-3)cc1 measurement_target="A549 NSCLC" measured_property=GI50 test_value="439 nM"
compound=CC(C)(C)c1cc(-c2nc3ccc(N4CCN(CCO)CC4)cc3[nH]2)cc(C(C)(C)C)c1O measurement_target="A549 NSCLC" measured_property=GI50 test_value="3510 nM"
compound="CC(C)C[C@@H](C=O)NC(=O)[C@H](CC(C)C)NC(=O)[C@H](CC(C)C)NC(=O)OCc1ccccc1 (Cbz-Leu-Leu-Leu-aldehyde)" measurement_target="A549 NSCLC" measured_property=GI50 test_value="578 nM"
compound="Cc1ccccc1C(C(=O)NC1CCCCC1)N(C(=O)CNc1ccc(C#N)cc1)c1cccc(F)c1 (centres undefined)" measurement_target="A549 NSCLC" measured_property=GI50 test_value="44000 nM"
compound=CNC(=O)c1cccc(C#Cc2cncnc2Nc2ccc(OCc3cccc(F)c3)c(Cl)c2)c1 measurement_target="A549 NSCLC" measured_property=GI50 test_value="3850 nM"
compound=CC(C)C(=O)c1c(C(F)(F)F)n([O-])c2ccccc2[n+]1=O measurement_target="A549 NSCLC" measured_property=GI50 test_value="2460 nM"

Give GI50 for each listed item.
1. C=C1CC2C3C=C(C)C4=CC(=O)CC[C@]4(C)C3CC[C@]2(C)[C@@]1(OC(C)=O)C(C)=O (some centres undefined)
2. Cc1cccc(Cl)c1NC(=O)c1cnc(Nc2cc(N3CCOCC3)cc(S(C)(=O)=O)c2)s1
3. O=c1oc2ccc(Br)cc2c(=O)n1-c1ccc(Cl)cc1F

A.
1: 2630 nM; 2: 2160 nM; 3: 2900 nM

###

- Tested on: DU-145 prostate
- Assay Info: NCI tumour cell line growth inhibition, 48 h
Measured Property: TGI (µM)
Give bare numbers, in µM.

Give TGI for each listed item.
1. COC(=O)CNc1nc(N(C)O)nc(N(C)O)n1
2. O=C1CC(N2C(=O)/C(=C/C(Cl)=C\c3ccc([N+](=O)[O-])cc3)SC2=S)C(=O)N1c1ccc(O)cc1 (stereo not given)

A.
45
3.37

Give TGI for each listed item.
1. C/C(=C\C(=N\NC(=N)N)c1ccccc1)c1ccccc1
2. CC(C)C(=O)c1c(C(F)(F)F)n([O-])c2ccccc2[n+]1=O

A.
9.49
2.54

###

- Tested on: SK-OV-3 ovarian
- Assay Info: NCI tumour cell line growth inhibition, 48 h
Measured Property: TGI

Check out these entries, answers already filled in.
compound="CCCCCCCCCCCCC(Br)C(C)=O (stereo not given)" measured_property=TGI test_value="> 100 µM"
compound=Cc1[nH]nc2ncc(C(=O)N3CCC[C@H]3c3ccc(Cl)cc3)cc12 measured_property=TGI test_value="> 100 µM"
compound=CC1(C)CCC(C)(C)c2cc(NC(=O)c3ccc(C(=O)O)cc3)ccc21 measured_property=TGI test_value="> 100 µM"
compound="CCCC[C@H]1C(=O)O[C@H](C)[C@H](NC(=O)c2cccc(NC=O)c2OC)C(=O)O[C@@H](C)[C@@H]1OC(=O)CC(C)C (tested in a mixture with another compound)" measured_property=TGI test_value="30.1 µM"

Next compound, please.
Q. Consider the compound CCC12C=CCN3CCC4(c5cc(C(c6ccc(OC)cc6)C6Cc7ccccc7N6)c(OC)cc5N(C)C4C(O)(C(=O)OC)C1O)C32 (stereo not given) and give its recorded TGI.
A. > 100 µM
